molecular target: hNET (Homo sapiens, UniProt P23975); construct: expressed in transfected cells; test: Norepinephrine (NE) uptake assay in MDCK-Net6 cells stably transfected with human hNET; format: cell-based; conditions: MDCK-Net6, 1 μM test compound, [3H]NE uptake
Sequence (P23975 whole entry): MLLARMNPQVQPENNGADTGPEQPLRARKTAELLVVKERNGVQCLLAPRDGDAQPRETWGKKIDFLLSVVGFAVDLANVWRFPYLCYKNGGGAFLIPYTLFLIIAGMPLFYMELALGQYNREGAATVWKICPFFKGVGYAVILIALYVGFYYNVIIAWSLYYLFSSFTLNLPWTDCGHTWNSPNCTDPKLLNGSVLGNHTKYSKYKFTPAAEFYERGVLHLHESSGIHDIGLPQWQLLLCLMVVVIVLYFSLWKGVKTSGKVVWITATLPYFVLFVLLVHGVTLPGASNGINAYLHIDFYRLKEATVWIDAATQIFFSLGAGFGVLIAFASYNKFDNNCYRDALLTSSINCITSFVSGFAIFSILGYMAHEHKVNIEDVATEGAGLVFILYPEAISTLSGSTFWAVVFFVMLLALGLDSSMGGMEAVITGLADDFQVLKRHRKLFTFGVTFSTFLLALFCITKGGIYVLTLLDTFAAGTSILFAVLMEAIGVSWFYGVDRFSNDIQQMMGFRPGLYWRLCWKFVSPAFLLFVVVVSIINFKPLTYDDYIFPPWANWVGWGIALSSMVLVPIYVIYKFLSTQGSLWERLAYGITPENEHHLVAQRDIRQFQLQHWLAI
Structures can show the parent of a compound that is named as a salt.
Measured Endpoint: inhibition at 1 µM (%)

Molecule	Subject Of Test	inhibition at 1 µM (%)
CN[C@@H]1CCN(CC(c2cccc(OC(F)(F)F)c2)C2(O)CCCCC2)C1 (some centres unmarked) [Example 218, dihydrochloride]	hNET (Homo sapiens, UniProt P23975)	42
N[C@@H]1CCN(CC(c2ccc(OCc3ccccc3)c(Cl)c2)C2(O)CCCCC2)C1 (some centres unmarked) [Example 383, dihydrochloride]	hNET (Homo sapiens, UniProt P23975)	90
CNC1CCN(CC(c2cccc(Br)c2)C2(O)CCCCC2)CC1 (centres unmarked) [Example 19, dihydrochloride]	hNET (Homo sapiens, UniProt P23975)	88
COc1ccc(C(CN2CCC(N)CC2)C2(O)CCCCC2)cc1Br (centres unmarked) [Example 25, dihydrochloride]	hNET (Homo sapiens, UniProt P23975)	85
N[C@@H]1CCN(CC(c2ccc3ccccc3c2)C2(O)CCCCC2)C1 (some centres unmarked) [Example 374, dihydrochloride]	hNET (Homo sapiens, UniProt P23975)	46
OC1(C(CN2CCC(N3CCCC3)CC2)c2cccc(Br)c2)CCCCC1 (centres unmarked) [Example 7, dihydrochloride]	hNET (Homo sapiens, UniProt P23975)	96
OC1(C(CN2CCC(N3CCCC3)CC2)c2cccc(Cl)c2)CCCCC1 (centres unmarked) [Example 3, dihydrochloride]	hNET (Homo sapiens, UniProt P23975)	100
OC1(C(CN2CCC(N3CCCCC3)CC2)c2cccc(Cl)c2)CCCCC1 (centres unmarked) [Example 2, dihydrochloride]	hNET (Homo sapiens, UniProt P23975)	100
COc1ccc2cc([C@@H](CN3CCC(N4CCCCC4)CC3)C3(O)CCCCC3)ccc2c1 (single isomer, unassigned) [Example 353, dihydrochloride]	hNET (Homo sapiens, UniProt P23975)	67
COc1ccc2cc([C@H](CN3CCC(N4CCCCC4)CC3)C3(O)CCCCC3)ccc2c1 (single isomer, unassigned) [Example 354, dihydrochloride]	hNET (Homo sapiens, UniProt P23975)	82

I = OC1(C(CN2CCC(N3CCCCC3)CC2)c2cccc(Oc3ccccc3)c2)CCCCC1 (centres unmarked) [Example 314, dihydrochloride]
II = OC1(C(CN2CCC(N3CCCCC3)CC2)c2ccc(OCCc3ccccc3)cc2)CCCCC1 (centres unmarked) [Example 461, dihydrochloride]
Incoming: // which entry reports the smaller inhibition at 1 µM, I or II ? Kindly give the label for the entry you pick.
Outgoing: II
(II: 17%, I: 95.5%)

* * *

target: hNET (Homo sapiens, UniProt P23975); construct: expressed in transfected cells; test: Norepinephrine (NE) uptake assay in MDCK-Net6 cells stably transfected with human hNET; assay type: cell-based; details: MDCK-Net6, 1 μM test compound, [3H]NE uptake
Counter-ions that a name gives are not always drawn.
Measured Endpoint: inhibition at 1 µM (%)

Compound	Unit Label	inhibition at 1 µM
CN[C@@H]1CCN(CC(c2cccc(Cl)c2)C2(O)CCCCC2)C1 (some centres unmarked) [Example 200, dihydrochloride]	%	54.1
NC1CCN(CC(c2cccc(Br)c2)C2(O)CCCCC2)CC1 (centres unmarked) [Example 18, dihydrochloride]	%	88
CN(C)[C@H]1CCN(CC(c2ccc3ccccc3c2)C2(O)CCCCC2)C1 (some centres unmarked) [Example 205, dihydrochloride]	%	39.5
CN[C@@H]1CCN(CC(c2cccc3ccccc23)C2(O)CCCCC2)C1 (some centres unmarked) [Example 379, dihydrochloride]	%	19
CNC1CCN(CC(c2ccc3cc(OC)ccc3c2)C2(O)CCCCC2)CC1 (centres unmarked) [Example 344, dihydrochloride]	%	52

1 = CNC1CCN(CC(c2cccc(Cl)c2)C2(O)CCCCC2)CC1 (centres unmarked) [Example 17, dihydrochloride]
2 = CN[C@H]1CCN(CC(c2ccc3ccccc3c2)C2(O)CCCCC2)C1 (some centres unmarked) [Example 203, dihydrochloride]
Incoming: Quick one: lower inhibition at 1 µM, 1 or 2 ? Could you answer with the label of the item you picked?
Outgoing: 2
(2: 59.2%, 1: 88%)

P = NC1CCN(CC(c2cccc(Cl)c2)C2CCCCC2O)CC1 (centres unmarked) [Example 239, dihydrochloride]
Q = N[C@@H]1CCN(CC(c2ccc(OCc3ccccc3)cc2)C2(O)CCCCC2)C1 (some centres unmarked) [Example 380, dihydrochloride]
Incoming: Which item exceeds the other in inhibition at 1 µM, P or Q ? Kindly state the label of the option you pick.
Outgoing: P

* * *

molecular target: hNET (Homo sapiens, UniProt P23975); test: Norepinephrine (NE) uptake assay in MDCK-Net6 cells stably transfected with human hNET; conditions: [3H]NE uptake, test range 1 to 10,000 nM
pEC50: −log10 of the molar value. Where a name gives a salt, the structure may show the parent alone.
Measured Endpoint: pEC50

Compound	Subject Of Test	Obs Value
OC1(C(CN2CCC(N3CCCC3)CC2)c2cccc(C(F)(F)F)c2)CCCCC1 (centres unmarked) [Example 26, dihydrochloride]	hNET (Homo sapiens, UniProt P23975)	6.70
CNC1CCN(C[C@H](c2cccc(OC(F)(F)F)c2)C2(O)CCCCC2)CC1 [Example 359, dihydrochloride]	hNET (Homo sapiens, UniProt P23975)	6.54

A = NC1CCN(CC(c2cccc(Br)c2)C2(O)CCCCC2)CC1 (centres unmarked) [Example 18, dihydrochloride]
B = OC1(C(CN2CCC(N3CCOCC3)CC2)c2cccc(OC(F)(F)F)c2)CCCCC1 (centres unmarked) [Example 361, dihydrochloride]
Incoming: Please state the entry with greater pEC50 among A and B . Please respond with the label that marks your chosen entry.
Outgoing: A

* * *

molecular target: hNET (Homo sapiens, UniProt P23975); construct: expressed in transfected cells; assay: Norepinephrine (NE) uptake assay in MDCK-Net6 cells stably transfected with human hNET; assay type: cell-based; conditions: MDCK-Net6, 1 μM test compound, [3H]NE uptake
Where a name gives a salt, the structure may show the parent alone.
Measured Endpoint: inhibition at 1 µM (%)

Compound	Unit Label	inhibition at 1 µM
CNC1CCN(CC(c2cccc(Cl)c2)C2CCCCCC2)CC1 (stereo not drawn) [Example 236, dihydrochloride]	%	49.7

a = N[C@@H]1CCCN(CC(c2cccc(OC(F)(F)F)c2)C2(O)CCCCC2)C1 (stereo partly drawn) [Example 187, dihydrochloride]
b = OC1(C(CN2CCC(N3CCCC3)CC2)c2ccc(Cl)c(Cl)c2)CCCCC1 (stereo not drawn) [Example 11, dihydrochloride]
Incoming: Compare a and b and name the one whose reported inhibition at 1 µM is smaller. Respond with the label that goes with your answer.
Outgoing: a
(a: 62.3%, b: 91%)

* * *

target: hNET (Homo sapiens); construct: expressed in transfected cells; test: Norepinephrine (NE) uptake assay in MDCK-Net6 cells stably transfected with human hNET; assay type: cell-based; settings: MDCK-Net6, 1 μM test compound, [3H]NE uptake
Where a name gives a salt, the structure may show the parent alone.
Measured Endpoint: inhibition at 1 µM (%)

Known results for compounds:
Compound	Subject Of Test	inhibition at 1 µM, %
OC1CCN(CC(c2cccc(OC(F)(F)F)c2)C2(O)CCCCC2)CC1 (centres unmarked) [Example 240, hydrochloride]	hNET (Homo sapiens)	4.4
OC1(C(CN2CCC(N3CCCC3)CC2)c2cccc(C(F)(F)F)c2)CCCCC1 (centres unmarked) [Example 26, dihydrochloride]	hNET (Homo sapiens)	84
N[C@H]1CCN(CC(c2cccc(Cl)c2)C2(O)CCCCC2)C1 (some centres unmarked) [Example 16, dihydrochloride]	hNET (Homo sapiens)	89

A = CN(C)[C@H]1CCN(CC(c2cccc(C(F)(F)F)c2)C2(O)CCCCC2)C1 (some centres unmarked) [Example 222, dihydrochloride]
B = CN[C@H]1CCN(CC(c2cccc(Cl)c2)C2(O)CCCCC2)C1 (some centres unmarked) [Example 198, dihydrochloride]
Incoming: Form: Entry with minimum inhibition at 1 µM (choose one): A / B Write the label of whichever entry you select.
Outgoing: A

* * *

target: hNET (Homo sapiens, UniProt P23975); construct: expressed in transfected cells; assay: Norepinephrine (NE) uptake assay in MDCK-Net6 cells stably transfected with human hNET; format: cell-based; settings: MDCK-Net6, 1 μM test compound, [3H]NE uptake
Counter-ions that a name gives are not always drawn.
Measured Endpoint: inhibition at 1 µM (%)

Consider the following illustrative entries.
Compound	Subject Of Test	Measured Endpoint	Unit Label	Obs Value
CN(C)C1CCN(CC(c2cccc(Cl)c2)C2CCCCCC2)CC1 (centres unmarked) [Example 237, dihydrochloride]	hNET (Homo sapiens, UniProt P23975)	inhibition at 1 µM	%	81.9
COc1ccc(C(CN2CCC(N3CCCCC3)CC2)C2(O)CCCCC2)cc1Br (centres unmarked) [Example 8, dihydrochloride]	hNET (Homo sapiens, UniProt P23975)	inhibition at 1 µM	%	95
OC1(C(CN2CCC(N3CCCCC3)CC2)c2cccc(C(F)(F)F)c2)CCCCC1 (centres unmarked) [Example 20, dihydrochloride]	hNET (Homo sapiens, UniProt P23975)	inhibition at 1 µM	%	88

a = CN(C)C1CCN(CC(c2cccc(Cl)c2)C2(O)CCCCC2)CC1 (centres unmarked) [Example 36, dihydrochloride]
b = COc1ccc(C(CN2CCC(N3CCCC3)CC2)C2(O)CCCCC2)cc1Br (centres unmarked) [Example 9, dihydrochloride]
Incoming: Lab notebook, comparison: a versus b , higher inhibition at 1 µM goes to which? Your answer should be the label attached to the chosen record.
Outgoing: b
(b: 93%, a: 57%)
